Below is a list of entries, each paired with its recorded Cmax value.
- measurementNotes: Cmax in guinea pig after 3mg/kg oral dose
- Format: ADME, organism-based, Cavia porcellus
- Parameters: dose 3 mg/kg, route oral
- conditionsUsed: in vivo
The figure you give is taken to be in ng/mL; do not add the unit.

compound | readoutName | readoutUnit | recordedResult
COc1ccc(C(=O)Nc2c(Cl)cncc2Cl)c2ccc(C(F)(F)F)nc12 | Cmax | ng/mL | 380

For the next question, use this compound.
Req: Hello, please tell me recorded Cmax for this one: COc1ccc(C(=O)Nc2c(Cl)c[n+]([O-])cc2Cl)c2ccc(C(F)(F)F)nc12 [SCH-351591]
Resp: 1390
